Below are IC50 measurements against HPK1 (Homo sapiens (Human)) drawn from the literature.

The value of IC50 recorded for `COc1cc(-c2cc(Nc3ccc(N4CCNCC4)cn3)c3c(=O)[nH]ccc3n2)c(F)cc1C(=O)N1CCCCC1` when tested on HPK1 (Homo sapiens (Human)) reads > 1000 nM

The value of IC50 recorded for `COc1cc2c(cc1Nc1ncc(C(N)=O)c(Nc3cccc(C#N)c3F)n1)CN(C)CC2` when tested on HPK1 (Homo sapiens (Human)) reads 2.38 nM

The value of IC50 recorded for O=c1[nH]ccc2nc(-c3ccc4c(c3F)CCC4O)cc(Nc3ccc(N4CCC(O)CC4)cn3)c12 (stereo not drawn) when tested on HPK1 (Homo sapiens (Human)) reads ≤ 100 nM

The value of IC50 recorded for Cc1n[nH]cc1-c1cc2c(-c3ccc4c(c3)OCC3CN(C)CCN43)n[nH]c2cn1 (stereo not drawn) when tested on HPK1 (Homo sapiens (Human)) reads ≤ 10 nM

The value of IC50 recorded for `O=C1NCc2c(-c3cnc4cc(F)ccn34)ccc(Nc3ccc(N4CC[C@@H](F)[C@H](O)C4)cn3)c21` when tested on HPK1 (Homo sapiens (Human)) reads < 100 nM

The value of IC50 recorded for `COc1cc2c(cc1Nc1ncc(C(N)=O)c(Nc3c4c(nn3C)CCC4)n1)CN(C)CC2` when tested on HPK1 (Homo sapiens (Human)) reads 5.66 nM

The value of IC50 recorded for `COc1cc2c(cc1Nc1ncc3ccc(-c4cncc(C#N)c4)cc3n1)CNCC2` when tested on HPK1 (Homo sapiens (Human)) reads 182 nM

The value of IC50 recorded for `COc1cc2c(cc1Nc1ncc3ccc(OCC4CCN(c5cncc(C)n5)CC4)cc3n1)CN(C)CC2` when tested on HPK1 (Homo sapiens (Human)) reads 158 nM

The value of IC50 recorded for `CN1CCc2cc(-c3ccc(Nc4ccc(N5CCC(O)CC5)cn4)c4c3CNC4=O)nn2CC1=O` when tested on HPK1 (Homo sapiens (Human)) reads > 1000 nM

---

Below are pIC50 measurements against HPK1 (Homo sapiens (Human), UniProt Q92918) drawn from the literature.
pIC50: −log10 of the molar value.

Recorded result, `[2H]C([2H])([2H])N1CCc2ccc(-c3n[nH]c4cc(=O)n(-c5c(C)cccc5F)nc34)cc2C1` , pIC50: ≥ 7.30

Recorded result, `Cn1cncc1-c1ccc(Nc2ccc(N3CCNCC3)cn2)c2c1CNC2=O` , pIC50: > 6.00

Recorded result, `Cn1ccc2c(-c3ncc(Nc4ccnc(N5CC[C@@H]6CNC[C@@H]65)n4)c4c3CNC4=O)ccnc21` , pIC50: 6.00 to 7.00

Recorded result, `C/C(Nc1cc(C)n(C(F)F)n1)=C1/C(=O)Nc2cnc(-c3cnccc3C)cc21` , pIC50: > 7.30

Recorded result, `CN1CCN(c2ccc(Nc3ccc(-c4ccnc5c4ccn5C)c4c3C(=O)NC4)nc2)CC1` , pIC50: > 7.00

Recorded result, `CN1CCN(c2ccc(Nc3cc(-c4ccc(NC(=O)C5CCCCC5)cc4F)nc4cc[nH]c(=O)c34)nc2)CC1` , pIC50: < 6.00

Recorded result, `Cc1nc2c(N3C[C@H](N)C4(CC4)C3)c(NC(=O)c3ccc(=O)n(-c4c(F)cccc4F)n3)ccc2n1C1CCOCC1` , pIC50: > 7.00

Recorded result, O=C1NCc2c(-c3cnc4cc(F)ccn34)ccc(Nc3ccc(N4CCCC(N5CCOCC5)C4)cn3)c21 (stereo not drawn) , pIC50: > 7.00

Recorded result, `Cc1ccc(NC(=O)c2cc(C(F)(F)F)ccn2)cc1C1=Cc2cnc(Nc3cccc(CO)c3)nc2N2CCN=C12` , pIC50: > 7.00

Recorded result, CN1CCN2c3ccc(-c4n[nH]c5cc(C#N)c(-c6c(F)cc(NC(=O)CN7CC8(COC8)C7)cc6F)cc45)cc3OCC2C1 (stereo not drawn) , pIC50: ≥ 8.00

Recorded result, `CN1CCN(CC2(O)CCN(c3ccc(Nc4cnc(-c5ccnc6c5ccn6C)c5c4C(=O)NC5)nc3)CC2)CC1` , pIC50: > 7.00

Recorded result, `CN1CCN(c2ccc(Nc3cnc(-c4c[nH]c5ccccc45)c4c3C(=O)NC4)nc2)CC1` , pIC50: 6.00 to 7.00

Recorded result, `CN(C)C(C)(C)[C@]1(O)CCCN(c2ccc(Nc3ccc(-c4cnc5cc(F)ccn45)c4c3C(=O)NC4)nc2)C1` , pIC50: > 7.00

Recorded result, `Cn1ccc2c(-c3ncc(Nc4cccc(N5C[C@H](N6CCC6)CC5=O)n4)c4c3CNC4=O)ccnc21` , pIC50: 6.00 to 7.00

Recorded result, `O=C1NCc2c(-c3cnc4cc(Cl)ccn34)ccc(Nc3ccc(N4CCC(O)(CN5CCOCC5)CC4)cn3)c21` , pIC50: > 7.00

Recorded result, `CCc1cccc(F)c1-n1nc2c(-c3ccc(N4CCN(C)CC4)nc3)n[nH]c2cc1=O` , pIC50: ≥ 7.30

Recorded result, `O=c1[nH]ccc2nc(N3CCC3)cc(Nc3ccc(N4CCC(O)CC4)cn3)c12` , pIC50: < 6.00

Recorded result, `CC(C)(C)n1cc2c(N3CC[C@@H](N)C3)c(NC(=O)c3ccc(=O)n(-c4c(F)cccc4F)n3)ccc2n1` , pIC50: > 7.00

---

pIC50: −log10 of the molar value.
Below are pIC50 measurements against UniProtKB Q92918 drawn from the literature.

The value of pIC50 recorded for `Cc1ccc(NC(=O)c2cc(C(F)(F)F)ccn2)cc1C1=Cc2cnc(Nc3nnn[nH]3)nc2N2CCN=C12` when tested on UniProtKB Q92918 reads 5.00 to 7.00

The value of pIC50 recorded for `Cn1ccc2c(-c3ccc(Nc4ccc(N5CCC[C@@H](N)C5)cn4)c4c3CNC4=O)ccnc21` when tested on UniProtKB Q92918 reads > 7.00

The value of pIC50 recorded for `COc1ccc(-n2nc3c(-c4ccc(C5CCN(C)CC5)cc4)n[nH]c3cc2=O)c(OC)c1` when tested on UniProtKB Q92918 reads 5.70 to 6.30

The value of pIC50 recorded for `CN1CCN(c2ccc(-c3n[nH]c4cc(=O)n(-c5cccc6c5COC6)nc34)cc2)CC1` when tested on UniProtKB Q92918 reads 5.70 to 6.30

---

Below are IC50 measurements against HPK1 (Homo sapiens (Human)) drawn from the literature.

The value of IC50 recorded for `C[C@@H]1CN(c2c(NC(=O)c3ccc(=O)n(-c4c(F)cccc4F)n3)ccc3nn(C45CC6CC(CC(C6)C4)C5)cc23)C[C@@H]1N` when tested on HPK1 (Homo sapiens (Human)) reads < 100 nM

The value of IC50 recorded for `Cc1nc2c(N(C)CC3CNC3)c(NC(=O)c3ccc(=O)n(-c4c(F)cccc4F)n3)ccc2n1C` when tested on HPK1 (Homo sapiens (Human)) reads 100 to 1000 nM

The value of IC50 recorded for `Cc1cc(-c2c[nH]c3ncc(-c4cc(C)c5c(c4)CN(CCC(=O)N[C@H]4CCC[C@H]4O)CC5)nc23)ccc1C(=O)N(C)C` when tested on HPK1 (Homo sapiens (Human)) reads 68 nM

The value of IC50 recorded for `Cn1ccc2c(-c3ncc(Nc4ccc(N5C[C@H]6C[C@@H]5CO6)cn4)c4c3CNC4=O)ccnc21` when tested on HPK1 (Homo sapiens (Human)) reads < 100 nM

The value of IC50 recorded for `CN1CCN(c2ccc(Nc3cnc(-c4cnn5c4CCCC5)c4c3C(=O)NC4)nc2)CC1` when tested on HPK1 (Homo sapiens (Human)) reads < 100 nM

The value of IC50 recorded for O=C(c1ccc(-c2cc(Nc3ccc(N4CCC(O)CC4)cn3)c3c(=O)[nH]ccc3n2)c(F)c1)N1CC2C(C1)C2(F)F (stereo not drawn) when tested on HPK1 (Homo sapiens (Human)) reads 100 to 1000 nM

---

Below are pIC50 measurements against HPK1 (Homo sapiens (Human), UniProt Q92918) drawn from the literature.
pIC50: −log10 of the molar value.

The value of pIC50 recorded for `Cc1cc(-c2cnc(N)c(-c3cn[nH]c3)n2)cc2c1CCN(C)C2` when tested on HPK1 (Homo sapiens (Human), UniProt Q92918) reads 7.03

The value of pIC50 recorded for CN(C)CC(=O)Nc1cc(F)c(-c2cc3c(-c4ccc5c(c4)OCC4CN(C)CCN54)n[nH]c3cc2C#N)c(F)c1 (stereo not drawn) when tested on HPK1 (Homo sapiens (Human), UniProt Q92918) reads ≥ 8.00

The value of pIC50 recorded for `C[C@@H]1CN(c2c(NC(=O)c3ccc(=O)n(-c4c(F)cccc4F)n3)cc(F)c3c2cnn3C)C[C@@H]1N` when tested on HPK1 (Homo sapiens (Human), UniProt Q92918) reads > 7.00

The value of pIC50 recorded for `COc1cc2c(cc1Nc1ncc3ccc(N4CCCC4=O)cc3n1)CN(C)CC2` when tested on HPK1 (Homo sapiens (Human), UniProt Q92918) reads 6.62

The value of pIC50 recorded for CNC(C)(C)[C@@H]1CN(c2ccc(Nc3ccc(-c4cnc5cc(F)ccn45)c4c3C(=O)NC4)nc2)CCO1 (single isomer, unassigned) when tested on HPK1 (Homo sapiens (Human), UniProt Q92918) reads > 7.00

The value of pIC50 recorded for COc1cccc(F)c1-n1nc2c(-c3ccc(N4CCN5C(=O)OCC5C4)cc3)n[nH]c2cc1=O (stereo not drawn) when tested on HPK1 (Homo sapiens (Human), UniProt Q92918) reads ≥ 7.30

The value of pIC50 recorded for `COc1cc2c(cc1Nc1ncc3ccc(NC[C@@H]4CCC(=O)N4)cc3n1)CN(C)CC2` when tested on HPK1 (Homo sapiens (Human), UniProt Q92918) reads 6.54

The value of pIC50 recorded for C[C@H](O)[C@@H]1CN(c2ccc(Nc3ccc(-c4cnc5cc(F)ccn45)c4c3C(=O)NC4)nc2)CCO1 (single isomer, unassigned) when tested on HPK1 (Homo sapiens (Human), UniProt Q92918) reads > 7.00

The value of pIC50 recorded for `C/C(Nc1ccn(C)n1)=C1/C(=O)Nc2cnc(-c3cccnc3C)cc21` when tested on HPK1 (Homo sapiens (Human), UniProt Q92918) reads 7.00 to 7.30
